- Measurement Target: T1, hiR2-FL-G546A-T7 (human, UniProt Q6PJF5 1-856)
- T1 sequence: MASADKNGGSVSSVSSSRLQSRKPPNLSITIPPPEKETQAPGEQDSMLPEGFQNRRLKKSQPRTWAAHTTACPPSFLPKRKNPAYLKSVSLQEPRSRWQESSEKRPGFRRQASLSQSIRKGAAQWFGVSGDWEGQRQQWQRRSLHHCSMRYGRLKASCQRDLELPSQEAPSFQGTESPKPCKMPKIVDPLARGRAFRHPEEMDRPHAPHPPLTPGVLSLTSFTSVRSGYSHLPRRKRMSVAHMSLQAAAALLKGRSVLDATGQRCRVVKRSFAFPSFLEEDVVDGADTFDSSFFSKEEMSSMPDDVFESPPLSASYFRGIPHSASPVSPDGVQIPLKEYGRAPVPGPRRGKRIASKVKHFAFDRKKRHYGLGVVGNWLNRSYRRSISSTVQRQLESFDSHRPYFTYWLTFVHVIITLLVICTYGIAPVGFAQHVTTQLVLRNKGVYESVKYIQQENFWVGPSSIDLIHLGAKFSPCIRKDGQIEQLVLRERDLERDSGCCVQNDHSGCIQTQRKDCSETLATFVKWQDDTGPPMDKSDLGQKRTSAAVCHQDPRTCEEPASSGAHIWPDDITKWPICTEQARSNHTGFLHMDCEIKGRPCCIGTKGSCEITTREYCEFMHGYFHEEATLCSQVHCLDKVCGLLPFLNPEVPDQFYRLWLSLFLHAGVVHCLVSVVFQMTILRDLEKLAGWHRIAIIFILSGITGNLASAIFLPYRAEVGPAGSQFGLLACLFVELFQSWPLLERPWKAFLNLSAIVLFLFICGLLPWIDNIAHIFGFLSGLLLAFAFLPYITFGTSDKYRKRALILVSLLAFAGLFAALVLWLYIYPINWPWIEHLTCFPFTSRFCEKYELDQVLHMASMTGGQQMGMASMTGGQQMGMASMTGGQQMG
- Assay Name: FACS on MEF-DKO cells expressing the variant, 3 µg/ml antibody
Would you kindly list loss of binding vs wild type for each of these binders?

GET /value?item= antibody 3 (antibody, V domains shown, mouse IgG, kappa light chain; also called clone #3; purified antibody 3) VH: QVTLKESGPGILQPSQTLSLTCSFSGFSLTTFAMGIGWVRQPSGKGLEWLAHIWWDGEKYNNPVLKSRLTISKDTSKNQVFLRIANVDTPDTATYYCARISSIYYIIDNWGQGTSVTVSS VL: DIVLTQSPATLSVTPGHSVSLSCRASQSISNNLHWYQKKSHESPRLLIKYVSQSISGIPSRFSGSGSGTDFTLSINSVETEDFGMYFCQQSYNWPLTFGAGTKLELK &field=loss of binding vs wild type returns ≥ 30%

Noted for antibody 44 (antibody, V domains shown, mouse IgG, kappa light chain; also called clone #44; purified antibody 44) VH: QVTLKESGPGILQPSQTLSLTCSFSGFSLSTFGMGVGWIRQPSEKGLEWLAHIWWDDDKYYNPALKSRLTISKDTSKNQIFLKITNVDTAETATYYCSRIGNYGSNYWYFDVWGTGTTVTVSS VL: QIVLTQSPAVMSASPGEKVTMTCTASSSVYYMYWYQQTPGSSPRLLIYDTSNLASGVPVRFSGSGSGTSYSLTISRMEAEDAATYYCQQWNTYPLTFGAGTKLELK : its loss of binding vs wild type reads ≥ 30%
